System: PPARa:RXRa (NR concentration 270 nM, RXRa partner concentration 90 nM)
Assay: PBM binding z-score (relative to random genomic background probes); higher = stronger binding; sequences stand for … in GC…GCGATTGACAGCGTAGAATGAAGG
Categorize each record by its PBM binding z-score using low: < 1; moderate: ≥ 1 and < 4; high: ≥ 4

inputSequence	labelValue
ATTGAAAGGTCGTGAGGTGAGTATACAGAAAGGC	high
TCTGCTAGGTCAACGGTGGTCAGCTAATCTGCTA	moderate
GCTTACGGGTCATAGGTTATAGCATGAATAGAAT	high
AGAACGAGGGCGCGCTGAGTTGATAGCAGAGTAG	low
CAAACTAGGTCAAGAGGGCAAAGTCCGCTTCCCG	high
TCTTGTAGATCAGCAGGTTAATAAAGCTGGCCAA	low
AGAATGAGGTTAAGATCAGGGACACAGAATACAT	moderate
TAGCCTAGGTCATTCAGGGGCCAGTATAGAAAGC	moderate
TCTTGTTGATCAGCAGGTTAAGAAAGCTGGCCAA	low
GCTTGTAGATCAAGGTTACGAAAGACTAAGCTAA	moderate
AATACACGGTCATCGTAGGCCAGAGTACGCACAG	low
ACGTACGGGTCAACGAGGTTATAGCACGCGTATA	high
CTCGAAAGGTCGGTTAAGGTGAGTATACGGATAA	moderate
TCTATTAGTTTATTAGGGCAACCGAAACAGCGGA	moderate
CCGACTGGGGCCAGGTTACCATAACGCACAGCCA	low
